# Test system: 186277-243-T-J2-PDC complex spheroid viability;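 further: spheroids exposed to drugs for 7 days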
# Assay explanation: Anticancer human tumor 186277-243-T-J2-PDC patient-derived colon adenocarcinoma cell line growth inhibition [GQUAD]
# Run parameters: curve of first compound; second compound 0.1 µM

| Compound | IC50 |
| --- | --- |
| O=c1[nH]cc(F)c(=O)[nH]1 + Cc1cnc(CNC(=O)c2c(=O)c3ccc(N4CCCN(C)CC4)nc3n3c2sc2ccccc23)cn1 | > 10 µM |
| CC(C)n1c(=O)n(C)c2cnc3cc(F)c(-c4ccc(OCCCN5CCCCC5)nc4)cc3c21 + Cc1cnc(CNC(=O)c2c(=O)c3ccc(N4CCCN(C)CC4)nc3n3c2sc2ccccc23)cn1 | > 10 µM |
| CC1COCCN1c1cc(C2(O)CC3CCC(C2)O3)c2cnn(-c3ccn[nH]3)c2n1 (stereo not given) + Cc1cnc(CNC(=O)c2c(=O)c3ccc(N4CCCN(C)CC4)nc3n3c2sc2ccccc23)cn1 | < 0.0316 µM |
| C=CC(=O)N1CCN(c2nc(=O)n(-c3c(C)ccnc3C(C)C)c3nc(-c4c(O)cccc4F)c(F)cc23)C(C)C1 (stereo not given) + Cc1cnc(CNC(=O)c2c(=O)c3ccc(N4CCCN(C)CC4)nc3n3c2sc2ccccc23)cn1 | > 10 µM |
| CC(=O)O[C@H]1C(=O)[C@@]2(C)[C@H]([C@H](OC(=O)c3ccccc3)[C@]3(O)C[C@H](OC(=O)[C@H](O)[C@@H](NC(=O)c4ccccc4)c4ccccc4)C(C)=C1C3(C)C)[C@]1(OC(C)=O)CO[C@@H]1C[C@@H]2O + Cc1cnc(CNC(=O)c2c(=O)c3ccc(N4CCCN(C)CC4)nc3n3c2sc2ccccc23)cn1 | < 0.0316 µM |
